# Tested on: KM12 colon
# EXPERIMENT DESCRIPTION: NCI tumour cell line growth inhibition, 48 h
ENDPOINT LABEL: TGI

Worked set:
MOLECULE	TGI
COC12C=C/C(=C(/C(=O)OCc3ccccn3)C(=O)CCCCCCCCC3(OC)C=C/C(=C(/C(=O)OCc4ccccn4)C(=O)CCCCCCCC1)O3)O2	1.39 µM
O=[N+]([O-])C=C(c1ccc(Cl)cc1)c1ccc(Cl)cc1	30.1 µM
Cc1cccc(C)c1NC(=O)C1=NC(=S)NC(c2ccccc2)C1c1nc2ccccc2s1 (configuration not stated)	> 100 µM
Cc1csc2c1-n1cccc1C2=O	> 100 µM
C=C(C)COC1CCCCO1 (configuration not stated)	> 100 µM
COc1c2c(c3ccccc3c1O)C1C=CC2C1 (configuration not stated)	31.4 µM
O=C(N/N=C\c1ccc(N(CCCl)CCCl)cc1[N+](=O)[O-])c1cccnc1	> 100 µM
Cc1ccc(-c2nc(N/N=C/c3ccc(O)cc3)c3ccccc3n2)cc1	41.4 µM
O=C(c1ccc(Cl)cc1)N(C(=S)N1CCN(c2ccccn2)CC1)C1CCCCC1	> 100 µM
CCOCCCn1c2c(c3c(O)cccc31)C(=O)c1ccccc1-2	39.4 µM

API: the following record is the query input.
Request: Value wanted: TGI (KM12 colon) of entry CC(=O)Nc1c(S(=O)(=O)c2ccccc2)c(C)c(C)n1Cc1ccccc1
Response: > 100 µM

From: PubChem BioAssay (NCI)
